Record form. Attribute: inhibition at 10 µM. Fill in for each entry.
# TARGET_DESC: IKK-β (Homo sapiens, UniProt O14920)
# Construct: purchased Promega
# Sequence (O14920 1-756): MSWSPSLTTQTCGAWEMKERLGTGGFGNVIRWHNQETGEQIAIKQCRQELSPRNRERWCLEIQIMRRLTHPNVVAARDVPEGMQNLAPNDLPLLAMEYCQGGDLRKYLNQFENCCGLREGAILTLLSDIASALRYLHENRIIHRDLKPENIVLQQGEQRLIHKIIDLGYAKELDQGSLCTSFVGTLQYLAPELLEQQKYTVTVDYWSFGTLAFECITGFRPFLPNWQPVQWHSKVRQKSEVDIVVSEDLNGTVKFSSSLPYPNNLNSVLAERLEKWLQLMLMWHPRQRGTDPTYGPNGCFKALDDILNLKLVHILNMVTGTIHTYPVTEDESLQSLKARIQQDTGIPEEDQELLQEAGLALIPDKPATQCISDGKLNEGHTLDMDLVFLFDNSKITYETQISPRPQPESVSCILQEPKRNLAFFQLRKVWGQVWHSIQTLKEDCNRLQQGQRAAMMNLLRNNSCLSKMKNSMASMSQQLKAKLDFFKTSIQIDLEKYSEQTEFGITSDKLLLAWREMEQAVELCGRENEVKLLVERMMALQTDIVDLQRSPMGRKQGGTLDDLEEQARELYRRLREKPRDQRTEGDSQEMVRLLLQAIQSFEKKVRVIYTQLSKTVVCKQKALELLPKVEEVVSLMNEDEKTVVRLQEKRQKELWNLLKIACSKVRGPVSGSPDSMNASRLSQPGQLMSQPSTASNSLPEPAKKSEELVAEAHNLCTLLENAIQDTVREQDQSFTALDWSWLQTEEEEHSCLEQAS
# MEASUREMENT_PROTOCOL: ADP-Glo kinase assay, IKK-β inhibition
# Assay type: biochemical
# RUN_CONDITIONS: 10 µM; mean ± SD; read-out: % inh. at 10 µM IKK-β

Sample NC(=O)Nc1cc(-c2ccnc(NC(=O)C3CCC3)c2)sc1C(N)=O [Compound 50] ; inhibition at 10 µM observed: < 10%

Sample O=C1NC2(CCCO2)Nc2cc(-c3ccnc(NC(=O)C4CC4)c3)sc21 (stereo not drawn) [Compound 61] ; inhibition at 10 µM observed: < 10%

Sample CC1(C)NC(=O)c2sc(-c3cccc(NC(=O)C4CC4)c3)cc2N1 [Compound 53] ; inhibition at 10 µM observed: < 10%
